B1: DLC1 (parent)
chain: NDDSADYQHFLQDCVDGLFKEVKE

# Variants of: B1
# measurementDescription: protein stability index of a GFP-peptide fusion (GPS, HEK-293T) (PSI 1-6); higher = more stable;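 note: lentivirally expressed fusions sorted by FACS into six bins by GFP to DsRed ratio, PSI derived from sequencing read proportions per bin multiplied by bin number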
# testConditions: c terminus: a fixed tail appended
Task for the reader: assign each of the following variants its reported protein stability index.

### Prompt Can you share its protein stability index? I mean this variant: K20N
### Response 3.08

### Prompt Can you share its protein stability index? I mean this variant: K20W
### Response 2.95

### Prompt Can you share its protein stability index? I mean this variant: D3N
### Response 3.02

### Prompt Can you share its protein stability index? I mean this variant: L18S
### Response 5.03

Data origin, for the record: the supplement of paper PMC10567573
